Test system: HeLa cells
Experiment: Cell cycle analysis with HeLa cells
Format: cell-based, human
Conditions: 18 hr, 30 nM
property_measured: Percent in Cell Cycle Phase >4N
Report as: number unit

{"compound_string": "C[C@H](Nc1c(-c2c(F)cc(OCCCN(C)C)cc2F)c(Cl)nc2ncnn12)C(F)(F)F.Cl", "assay_target": "HeLa cells", "recorded_value": "1%"}
{"compound_string": "CNCCCOc1cc(F)c(-c2c(Cl)nc3ncnn3c2NCC(F)(F)F)c(F)c1.Cl", "assay_target": "HeLa cells", "recorded_value": "2%"}

The value of Percent in Cell Cycle Phase >4N recorded for `CNCCCOc1cc(F)c(-c2c(Cl)nc3ncnn3c2N[C@@H](C)C(F)(F)F)c(F)c1.Cl` when tested on HeLa cells reads 2%
